System: A549
Assay: cells
Conditions: Homo sapiens
Description: Cytotoxicity against human A549 cells assessed as reduction in cell viability
Each entry below carries its reported IC50.

Example compounds with recorded IC50:
IN: Reported IC50 for CNC(=O)/C=C/C(C)=C/[C@@H](C)C(=O)c1ccc(N(C)C)cc1 : what is it?
OUT: > 50 µM

IN: Entry to check: COc1cccc2c1C(=O)c1c(O)c3c(c(O)c1C2=O)C[C@@](O)(C(=O)CO)C[C@@H]3O[C@H]1C[C@H](N)[C@H](O)[C@H](C)O1
OUT: 3.76 µM

Consider the record given below.
IN: Can you look up the measured IC50 of CC(/C=C/C(=O)O)=C\[C@H](C)C(=O)c1ccc(N(C)C)cc1 for me?
OUT: > 50 µM

###

Test system: MCF7
Experiment: cells
Details: Homo sapiens
pIC50: −log10 of the molar value.
readout: pIC50

IN: Would you mind telling me what pIC50 value was observed for CC(/C=C/C(=O)NO[C@@H]1O[C@H](CO)[C@@H](O)[C@H](O)[C@H]1O)=C\[C@@H](C)C(=O)c1ccc(N(C)C)cc1 ?
OUT: 4.72

IN: Query CC(/C=C/C(=O)NO)=C\[C@@H](C)C(=O)c1ccc(N(C)C)cc1 next
OUT: 6.52

(a) CC(/C=C/C(N)=O)=C\[C@@H](C)C(=O)c1ccc(N(C)C)cc1
(b) CNC(=O)/C=C/C(C)=C/[C@@H](C)C(=O)c1ccc(N(C)C)cc1
IN: Hey, between a and b which has a smaller measured pIC50? Answer = label.
OUT: b
(b: 4.73, a: 5.56)

###

Molecular target: Mushroom tyrosinase (Agaricus bisporus, UniProt O42713+Q00024+C7FF04+C7FF05)
Assay: Inhibition of mushroom tyrosinase using L-DOPA as substrate
readout: IC50 (µM)

IN: Find the recorded IC50 belonging to CNC(=O)/C=C/C(C)=C/[C@@H](C)C(=O)c1ccc(N(C)C)cc1 and report it.
OUT: 161.18

(1) CC(/C=C/C(=O)NO[C@@H]1O[C@H](CO)[C@@H](O)[C@H](O)[C@H]1O)=C\[C@@H](C)C(=O)c1ccc(N(C)C)cc1
(2) CC(/C=C/C(=O)NO)=C\[C@@H](C)C(=O)c1ccc(N(C)C)cc1 [TRICHOSTATIN]
(3) CC(/C=C/C(N)=O)=C\[C@@H](C)C(=O)c1ccc(N(C)C)cc1
IN: Sort (3 molecules) by IC50: min first. Form field (ranking): labels in requested order.
OUT: 2, 3, 1
(2: 2.18 µM, 3: 19.18 µM, 1: 174.33 µM)

###

Test system: A549
Assay: cells
Details: Homo sapiens
pIC50: −log10 of the molar value.
readout: pIC50

IN: Field request: pIC50 | item: CC(/C=C/C(=O)NO)=C\[C@@H](C)C(=O)c1ccc(N(C)C)cc1
OUT: 5.88

(P) CC(/C=C/C(=O)NO[C@@H]1O[C@H](CO)[C@@H](O)[C@H](O)[C@H]1O)=C\[C@@H](C)C(=O)c1ccc(N(C)C)cc1
(Q) CC(/C=C/C(N)=O)=C\[C@@H](C)C(=O)c1ccc(N(C)C)cc1
IN: Look at P and Q . Which one has the lower recorded pIC50 number? Answer by stating the label of the chosen item.
OUT: P

###

System: MCF7
Test: cells
Conditions: Homo sapiens
As shown below, each of these molecules has a reported IC50 value.

IN: Give its IC50 value. Item: CC(/C=C/C(=O)N[C@@H](CCC(N)=O)C(=O)O)=C\[C@@H](C)C(=O)c1ccc(N(C)C)cc1
OUT: > 50 µM

IN: Thanks! And CC(/C=C/C(=O)O)=C\[C@H](C)C(=O)c1ccc(N(C)C)cc1 ?
OUT: > 50 µM

Others:
IN: Request the reported IC50 associated with CC(/C=C/C(=O)O)=C\[C@@](C)(O)C(=O)c1ccc(N(C)C)cc1
OUT: > 50 µM
